- Test system: SNU-449
- METHOD SUMMARY: Antiproliferative activity against human SNU-449 cells assessed as inhibition of cell growth incubated for 72 hrs by MTT assay
- Assay type: functional, cell-based
- CONDITION INFO: SNU-449, 72 h
OBSERVABLE: IC50 (µM)
Form entry: value (µM) — number only.

Data request: What does the record list as IC50 for `O=C(Nc1cccc2cccnc12)c1cnccn1` ?
Data returned: 0.4

====

- Tested on: MIA PaCa-2
- METHOD SUMMARY: Cytotoxicity against human MIA PaCa-2 cells assessed as inhibition of cell growth incubated for 72 hrs by MTT assay
- Type: functional, cell-based
- CONDITION INFO: MIA PaCa-2, 72 h
OBSERVABLE: pIC50
API: returns pIC50 as number; meaning -log10 of concentration in mol/L.

Data request: # get_value(readout= pIC50, system= MIA PaCa-2) for `O=C(Nc1cccc2cccnc12)c1ccc(Br)cn1`
Data returned: 5.74

Data request: Lab note: need pIC50 with MIA PaCa-2 for entry `Cc1cnc(C(=O)Nc2cc(OCCC3CCNCC3)cc3cccnc23)cn1` , please look it up.
Data returned: 5.21

Data request: What reported pIC50 corresponds to `O=C(Nc1cccc2cccnc12)c1cccnn1` on MIA PaCa-2?
Data returned: 5.07

Data request: What measured pIC50 is associated with `Cc1cnc(C(=O)Nc2cc(F)cc3cccnc23)cn1` on MIA PaCa-2?
Data returned: 6.51

Data request: Value wanted: pIC50 (MIA PaCa-2) of entry `Cc1cnc(C(=O)Nc2cccc3cccnc23)cn1`
Data returned: 6.30

Data request: Item `O=C(Nc1cc(OCCF)cc2cccnc12)c1cnccn1` with MIA PaCa-2 - pIC50?
Data returned: 6.43

Data request: MIA PaCa-2 / pIC50 / `Cc1cnc(C(=O)Nc2ccc(Br)c3cccnc23)cn1` : value?
Data returned: 5.66

Origin of values: ChEMBL document CHEMBL5154879
